Test system: phenylephrine-contracted cephalic veins
Test: Canine cephalic vein assay: relaxing phenylephrine-contracted cephalic veins
Format: cell-based
Conditions: Canis lupus familiaris, relaxing phenylephrine-contracted canine cephalic veins in vitro; ±SEM
Procedure: All six compounds were tested in the Purkinje fiber and canine cephalic vein assays taught by Steinberg et al., Journal of Cardiovascular Pharmacology, 12 (Suppl. 2), S30-S40 (1988). The effective concentration for reducing the Purkinje fiber action potential duration and for relaxing phenylephrine-contracted cephalic veins, respectively, otherwise known as the EC50, was determined for each compound and is reported in Table I.
Exercise: state measured pEC50 for each of the compounds provided.
Give bare numbers, as −log10 of the molar value.

# compound, experimental-value
measured = [
    ("CC(N/C(=N\\C#N)Nc1ccncc1)C(C)(C)C (racemic) [(±)-Pinacidil]", 6.12),
]

Let us examine a further case.
What does the data say about its pEC50? Entry: CC(NC(=NC#N)Nc1cccnc1)C(C)(C)C (racemic)
6.25
